meta.source: patent US20200270309A1

Listed next: entries and their corresponding clearance.
- ASSAY PROTOCOL: Half-lives and pharmacokinetic parameters of polypeptides vs HM-1
- SETUP CONDITIONS: in vivo
Peptide text beside a SMILES is read from it. * marks the point of attachment. X18 = O=C1C=CC(=O)N1CCOCCOCCOCCOCCOCCOCCCCCCCC(=O)*; X40 = O=C1C=CC(=O)N1c1ccc(CCCCCCCCC(=O)*)cc1; X8 = O=C1C=CC(=O)N1CCOCCOCCCC(=O)*
Report the figure in mL/min/kg without appending any unit label.

C[C@H](NC(=O)CNC(=O)[C@H](CCCNC(=N)N)NC(=O)CCCOCCOCCN1C(=O)C=CC1=O)C(=O)N[C@@H](CC(=O)O)C(=O)N[C@@H](CCCNC(=N)N)C(=O)N[C@@H](C)C(=O)NCC(=O)NCC(=O)NCC(=O)NCC(=O)N[C@@H](CCCNC(=N)N)C(=O)NCC(=O)N[C@@H](CC(=O)O)C(=O)O [X58] (X8-RGADRAGGGGRGD-OH) | 0.635
C[C@H](NC(=O)CNC(=O)[C@H](CCCNC(=N)N)NC(=O)CCCCCCCCc1ccc(N2C(=O)C=CC2=O)cc1)C(=O)N[C@@H](CC(=O)O)C(=O)N[C@@H](CCCNC(=N)N)C(=O)N[C@@H](C)C(=O)NCC(=O)NCC(=O)NCC(=O)NCC(=O)N[C@@H](CCCNC(=N)N)C(=O)NCC(=O)N[C@@H](CC(=O)O)C(=O)O [X44] (X40-RGADRAGGGGRGD-OH) | 0.622

Now turn to the next molecule.
Return clearance (reported value) for this molecule: C[C@H](NC(=O)CNC(=O)[C@H](CCCNC(=N)N)NC(=O)CCCCCCCOCCOCCOCCOCCOCCOCCN1C(=O)C=CC1=O)C(=O)N[C@@H](CC(=O)O)C(=O)N[C@@H](CCCNC(=N)N)C(=O)N[C@@H](C)C(=O)NCC(=O)NCC(=O)NCC(=O)NCC(=O)N[C@@H](CCCNC(=N)N)C(=O)NCC(=O)N[C@@H](CC(=O)O)C(=O)O [X90] (X18-RGADRAGGGGRGD-OH)
0.605

----------
- Tested on: retinal neovascularization (OIR model)
- ASSAY PROTOCOL: Retinal vessels in OIR mice
- Assay type: in vivo, C57/B16 mice
- SETUP CONDITIONS: dose 0.05 μM in the vitreous chamber on day 13, retinal vessels evaluated on day 17, vs negative control
- Excerpt: Establishment of an OIR model: Young mice and their mothers were exposed in a 75% hyperoxic environment from day 7 to day 12 after the birth of C57/B16 mice, which caused capillaries in their central retina to disappear rapidly. The mice were returned to the indoor air on day 12, retinal vessels exposed to hyperoxia quickly disappeared, causing extensive abnormal neoangiogenesis, and the central part of the retina remained largely avascular for a long time. […]
Peptide text beside a SMILES is read from it. * marks the point of attachment. X68 = O=C1C=CC(=O)N1c1ccccc1CCCCCCCCCCCC(=O)*; X59 = O=C1C=CC(=O)N1c1cccc(CCCCCCCCC(=O)*)c1; X79 = O=C1C=CC(=O)N1c1cccc(CCC(=O)*)c1
PROPERTY LABEL: Inhibition rate (%) (%**)
Just the number in %**, nothing appended.

Illustrative cases are given below, each with its answer.
C[C@H](NC(=O)CNC(=O)[C@H](CCCNC(=N)N)NC(=O)CCCCCCCCCCCc1ccccc1N1C(=O)C=CC1=O)C(=O)N[C@@H](CC(=O)O)C(=O)N[C@@H](CCCNC(=N)N)C(=O)N[C@@H](C)C(=O)NCC(=O)NCC(=O)NCC(=O)NCC(=O)N[C@@H](CCCNC(=N)N)C(=O)NCC(=O)N[C@@H](CC(=O)O)C(=O)O [X23] (X68-RGADRAGGGGRGD-OH) | 52.36
C[C@H](NC(=O)CNC(=O)[C@H](CCCNC(=N)N)NC(=O)CCc1cccc(N2C(=O)C=CC2=O)c1)C(=O)N[C@@H](CC(=O)O)C(=O)N[C@@H](CCCNC(=N)N)C(=O)N[C@@H](C)C(=O)NCC(=O)NCC(=O)NCC(=O)NCC(=O)N[C@@H](CCCNC(=N)N)C(=O)NCC(=O)N[C@@H](CC(=O)O)C(=O)O [X26] (X79-RGADRAGGGGRGD-OH) | 50.94

Now for another entry.
Identify measured Inhibition rate (%) corresponding to C[C@H](NC(=O)CNC(=O)[C@H](CCCNC(=N)N)NC(=O)CCCCCCCCc1cccc(N2C(=O)C=CC2=O)c1)C(=O)N[C@@H](CC(=O)O)C(=O)N[C@@H](CCCNC(=N)N)C(=O)N[C@@H](C)C(=O)NCC(=O)NCC(=O)NCC(=O)NCC(=O)N[C@@H](CCCNC(=N)N)C(=O)NCC(=O)N[C@@H](CC(=O)O)C(=O)O [X32] (X59-RGADRAGGGGRGD-OH)
54.72

----------
- Test system: IL-1β production by mouse peritoneal macrophages
- ASSAY PROTOCOL: IL-1β production by mouse peritoneal macrophages (ELISA)
- Type: cell-based
- SETUP CONDITIONS: dose 0.05 μM; IL-1β production, vs model group
Peptide text beside a SMILES is read from it. * marks the point of attachment. X79 = O=C1C=CC(=O)N1c1cccc(CCC(=O)*)c1
PROPERTY LABEL: Inhibition rate
# include the unit after the value

Output measured Inhibition rate for this item: C[C@H](NC(=O)CNC(=O)[C@H](CCCNC(=N)N)NC(=O)CCc1cccc(N2C(=O)C=CC2=O)c1)C(=O)N[C@@H](CC(=O)O)C(=O)N[C@@H](CCCNC(=N)N)C(=O)N[C@@H](C)C(=O)NCC(=O)NCC(=O)NCC(=O)NCC(=O)N[C@@H](CCCNC(=N)N)C(=O)NCC(=O)N[C@@H](CC(=O)O)C(=O)O [X26] (X79-RGADRAGGGGRGD-OH)
18.26%

----------
- Test system: choroidal neovascularization
- ASSAY PROTOCOL: Choroidal neovascularization in rats (laser photocoagulation, FFA)
- Format: in vivo
- SETUP CONDITIONS: day 14 after administration, total light spot number was 137, 0.05 μM in the vitreous chamber once a day for 1 week, BN rats
Peptide text beside a SMILES is read from it. * marks the point of attachment. X84 = O=C1C=CC(=O)N1c1ccccc1CCCCCCCCCCCCC(=O)*; X64 = O=C1C=CC(=O)N1c1cccc(CCCCCCCCCC(=O)*)c1; X59 = O=C1C=CC(=O)N1c1cccc(CCCCCCCCC(=O)*)c1; X55 = O=C1C=CC(=O)N1c1ccccc1CCCCCCCCC(=O)*; X49 = O=C1C=CC(=O)N1c1ccccc1CCCCCC(=O)*; X75 = O=C1C=CC(=O)N1c1cccc(CC(=O)*)c1
Here the recorded CNV Incidence (%) is given for each entry.
// note: answer is a bare numeric in %

In the examples that follow, each entry is paired with its recorded CNV Incidence (%).
C[C@H](NC(=O)CNC(=O)[C@H](CCCNC(=N)N)NC(=O)CCCCCCCCc1cccc(N2C(=O)C=CC2=O)c1)C(=O)N[C@@H](CC(=O)O)C(=O)N[C@@H](CCCNC(=N)N)C(=O)N[C@@H](C)C(=O)NCC(=O)NCC(=O)NCC(=O)NCC(=O)N[C@@H](CCCNC(=N)N)C(=O)NCC(=O)N[C@@H](CC(=O)O)C(=O)O [X32] (X59-RGADRAGGGGRGD-OH) | 43.07
C[C@H](NC(=O)CNC(=O)[C@H](CCCNC(=N)N)NC(=O)CCCCCCCCCc1cccc(N2C(=O)C=CC2=O)c1)C(=O)N[C@@H](CC(=O)O)C(=O)N[C@@H](CCCNC(=N)N)C(=O)N[C@@H](C)C(=O)NCC(=O)NCC(=O)NCC(=O)NCC(=O)N[C@@H](CCCNC(=N)N)C(=O)NCC(=O)N[C@@H](CC(=O)O)C(=O)O [X33] (X64-RGADRAGGGGRGD-OH) | 45.26
C[C@H](NC(=O)CNC(=O)[C@H](CCCNC(=N)N)NC(=O)CCCCCCCCCCCCc1ccccc1N1C(=O)C=CC1=O)C(=O)N[C@@H](CC(=O)O)C(=O)N[C@@H](CCCNC(=N)N)C(=O)N[C@@H](C)C(=O)NCC(=O)NCC(=O)NCC(=O)NCC(=O)N[C@@H](CCCNC(=N)N)C(=O)NCC(=O)N[C@@H](CC(=O)O)C(=O)O [X24] (X84-RGADRAGGGGRGD-OH) | 45.99
C[C@H](NC(=O)CNC(=O)[C@H](CCCNC(=N)N)NC(=O)CCCCCCCCc1ccccc1N1C(=O)C=CC1=O)C(=O)N[C@@H](CC(=O)O)C(=O)N[C@@H](CCCNC(=N)N)C(=O)N[C@@H](C)C(=O)NCC(=O)NCC(=O)NCC(=O)NCC(=O)N[C@@H](CCCNC(=N)N)C(=O)NCC(=O)N[C@@H](CC(=O)O)C(=O)O [X20] (X55-RGADRAGGGGRGD-OH) | 42.34
C[C@H](NC(=O)CNC(=O)[C@H](CCCNC(=N)N)NC(=O)CCCCCc1ccccc1N1C(=O)C=CC1=O)C(=O)N[C@@H](CC(=O)O)C(=O)N[C@@H](CCCNC(=N)N)C(=O)N[C@@H](C)C(=O)NCC(=O)NCC(=O)NCC(=O)NCC(=O)N[C@@H](CCCNC(=N)N)C(=O)NCC(=O)N[C@@H](CC(=O)O)C(=O)O [X17] (X49-RGADRAGGGGRGD-OH) | 42.34

Kindly indicate its recorded CNV Incidence (%). Item: C[C@H](NC(=O)CNC(=O)[C@H](CCCNC(=N)N)NC(=O)Cc1cccc(N2C(=O)C=CC2=O)c1)C(=O)N[C@@H](CC(=O)O)C(=O)N[C@@H](CCCNC(=N)N)C(=O)N[C@@H](C)C(=O)NCC(=O)NCC(=O)NCC(=O)NCC(=O)N[C@@H](CCCNC(=N)N)C(=O)NCC(=O)N[C@@H](CC(=O)O)C(=O)O [X25] (X75-RGADRAGGGGRGD-OH)
43.07
